Data provenance: ChEMBL document CHEMBL4000149

test: Toxicity in human erythrocytes assessed as hemolysis after 1 hr; type: cell-based, Erythrocyte
Numbered stars: 1 amine (or outer) side, 2 acyl side, 3 side chain; on linkers, the order of the positions; unused ones are H or OH. Bridge positions count the residues as written; N and C are the ends. Square brackets hold non-standard residues; d marks the D form. Peptide text beside a SMILES is read from it. ξ: configuration not given here. NH(CH2)9CO = O=C(CCCCCCCCCN[*:1])[*:2]; 2Nal = N[C@@H](Cc1ccc2ccccc2c1)C(=O)O; X1 = NC(CCN[*:2])C(=O)[*:1]; ξDab = NCCC(N)C(=O)O
ENDPOINT: EC50 at 1 hr

CC(C)C[C@@H]1NC(=O)[C@H](Cc2ccc3ccccc3c2)NC(=O)[C@H](CCCNC(=N)N)NC(=O)[C@H](CCC(N)=O)NC(=O)CNC(=O)[C@H](Cc2ccc3ccccc3c2)NC(=O)[C@H](CCCNC(=N)N)NC1=O (cyclo([2Nal]GQR[2Nal]LR)) | > 150 µM

// EC50 at 1 hr lookup, key: CC(C)C[C@@H]1NC(=O)CCCCCCCCCNC(=O)[C@H](Cc2ccc3ccccc3c2)NC(=O)[C@H](CCCNC(=N)N)NC(=O)[C@H](CC(C)C)NC(=O)[C@H](Cc2ccc3ccccc3c2)NC(=O)[C@H](CCCNC(=N)N)NC1=O (cyclo([2Nal]LR[2Nal][NH(CH2)9CO]LR))
15 µM

Record: CC(C)C[C@@H]1NC(=O)CNC(=O)[C@H](Cc2ccc3ccccc3c2)NC(=O)[C@H](CCCNC(=N)N)NC(=O)[C@H](CC(C)C)NC(=O)[C@H](Cc2ccc3ccccc3c2)NC(=O)[C@H](CCCNC(=N)N)NC1=O
215 µM

Record: CC(C)C[C@@H]1NC(=O)C(N)CCNC(=O)C(N)CCNC(=O)[C@H](Cc2ccc3ccccc3c2)NC(=O)[C@H](CCCNC(=N)N)NC(=O)[C@H](CC(C)C)NC(=O)[C@H](Cc2ccc3ccccc3c2)NC(=O)[C@H](CCCNC(=N)N)NC1=O (some centres undefined) (H-[ξDab]LR[2Nal]LR[2Nal]; linker 1-C via X1)
> 450 µM

###

# hemolysis at 1 h, 150 µM listing for each entry below
test: Toxicity in human erythrocytes assessed as hemolysis at 150 uM after 1 hr; type: cell-based, Erythrocyte; details: read-out: Activity
Numbered stars: 1 amine (or outer) side, 2 acyl side, 3 side chain; on linkers, the order of the positions; unused ones are H or OH. Bridge positions count the residues as written; N and C are the ends. Square brackets hold non-standard residues; d marks the D form. Peptide text beside a SMILES is read from it. ξ: configuration not given here. NH(CH2)9CO = O=C(CCCCCCCCCN[*:1])[*:2]; 2Nal = N[C@@H](Cc1ccc2ccccc2c1)C(=O)O; ξAoc(2) = CCCCCCC(N)C(=O)O; ξDab = NCCC(N)C(=O)O; Ahx = NCCCCCC(=O)O; GABA = NCCCC(=O)O
Please give a number only; it is taken to be in %.

See these solved cases before continuing.
CC(C)C[C@@H]1NC(=O)CCCCCCCCCNC(=O)[C@H](Cc2ccc3ccccc3c2)NC(=O)[C@H](CCCNC(=N)N)NC(=O)[C@H](CC(C)C)NC(=O)[C@H](Cc2ccc3ccccc3c2)NC(=O)[C@H](CCCNC(=N)N)NC1=O (cyclo([2Nal]LR[2Nal][NH(CH2)9CO]LR)) | 100
CCCCCCC1NC(=O)CNC(=O)[C@H](Cc2ccc3ccccc3c2)NC(=O)[C@H](CCCNC(=N)N)NC(=O)[C@H](CC(C)C)NC(=O)[C@H](Cc2ccc3ccccc3c2)NC(=O)[C@H](CCCNC(=N)N)NC1=O (stereo not given in full) (cyclo([2Nal]G[ξAoc(2)]R[2Nal]LR)) | 100

// hemolysis at 1 h, 150 µM lookup, key: CC(C)C[C@@H]1NC(=O)CCCCCNC(=O)[C@H](Cc2ccc3ccccc3c2)NC(=O)[C@H](CCCNC(=N)N)NC(=O)[C@H](CC(C)C)NC(=O)[C@H](Cc2ccc3ccccc3c2)NC(=O)[C@H](CCCNC(=N)N)NC1=O (cyclo([2Nal][Ahx]LR[2Nal]LR))
75

Record: CC(C)C[C@@H]1NC(=O)CCCNC(=O)C(N)CCNC(=O)[C@H](Cc2ccc3ccccc3c2)NC(=O)[C@H](CCCNC(=N)N)NC(=O)[C@H](CC(C)C)NC(=O)[C@H](Cc2ccc3ccccc3c2)NC(=O)[C@H](CCCNC(=N)N)NC1=O (stereo not given in full) (H-[ξDab][GABA]LR[2Nal]LR[2Nal]; lactam 1-C)
12

Record: CC(C)C[C@@H]1NC(=O)[C@H](Cc2ccc3ccccc3c2)NC(=O)[C@H](CCCNC(=N)N)NC(=O)[C@H](CC(C)C)NC(=O)[C@@H](N)CCCCNC(=O)[C@H](Cc2ccc3ccccc3c2)NC(=O)[C@H](CCCNC(=N)N)NC1=O (H-KLR[2Nal]LR[2Nal]; lactam 1-C)
51

###

# MIC listing for each entry below
tested on: Klebsiella pneumoniae; test: Antimicrobial activity against multidrug-resistant Klebsiella pneumoniae ATCC 700603 by tube dilution method; format: functional
Square brackets hold non-standard residues; d marks the D form. Peptide text beside a SMILES is read from it. ξ: configuration not given here. Bip = N[C@@H](Cc1ccc(-c2ccccc2)cc1)C(=O)O; 2Nal = N[C@@H](Cc1ccc2ccccc2c1)C(=O)O; ξAoc(2) = CCCCCCC(N)C(=O)O; Ahx = NCCCCCC(=O)O

See these solved cases before continuing.
CC(C)C[C@@H]1NC(=O)CCCCCNC(=O)[C@H](Cc2ccc3ccccc3c2)NC(=O)[C@H](CCCNC(=N)N)NC(=O)[C@H](CC(C)C)NC(=O)[C@H](Cc2ccc3ccccc3c2)NC(=O)[C@H](CCCNC(=N)N)NC1=O (cyclo([2Nal][Ahx]LR[2Nal]LR)) | 128 µM
CC(C)C[C@@H]1NC(=O)CNC(=O)[C@H](Cc2ccc(-c3ccccc3)cc2)NC(=O)[C@H](CCCNC(=N)N)NC(=O)[C@H](CC(C)C)NC(=O)[C@H](Cc2ccc(-c3ccccc3)cc2)NC(=O)[C@H](CCCNC(=N)N)NC1=O (cyclo([Bip]GLR[Bip]LR)) | 32 µM
CCCCCCC1NC(=O)CNC(=O)[C@H](Cc2ccc3ccccc3c2)NC(=O)[C@H](CCCNC(=N)N)NC(=O)[C@H](CC(C)C)NC(=O)[C@H](Cc2ccc3ccccc3c2)NC(=O)[C@H](CCCNC(=N)N)NC1=O (stereo partly drawn) (cyclo([2Nal]G[ξAoc(2)]R[2Nal]LR)) | 64 µM

Any idea what MIC came out for CC(C)C[C@@H]1NC(=O)CNC(=O)[C@H](Cc2ccc3ccccc3c2)NC(=O)[C@H](CCCNC(=N)N)NC(=O)[C@@H]2CCCN2C(=O)[C@H](Cc2ccc3ccccc3c2)NC(=O)[C@H](CCCNC(=N)N)NC1=O (cyclo([2Nal]GLR[2Nal]PR)) on Klebsiella pneumoniae?
> 128 µM

Record: CC(C)C[C@@H]1NC(=O)[C@H](Cc2ccc3ccccc3c2)NC(=O)[C@H](CCCNC(=N)N)NC(=O)[C@H](CCC(N)=O)NC(=O)CNC(=O)[C@H](Cc2ccc3ccccc3c2)NC(=O)[C@H](CCCNC(=N)N)NC1=O (cyclo([2Nal]GQR[2Nal]LR))
> 128 µM

Record: CC(C)C[C@@H]1NC(=O)CNC(=O)[C@H](Cc2ccc3ccccc3c2)NC(=O)[C@H](CCCCN)NC(=O)[C@H](CC(C)C)NC(=O)[C@H](Cc2ccc3ccccc3c2)NC(=O)[C@H](CCCNC(=N)N)NC1=O (cyclo([2Nal]GLR[2Nal]LK))
> 128 µM

Record: CC(C)C[C@@H]1NC(=O)CNC(=O)[C@@H](Cc2ccc3ccccc3c2)NC(=O)[C@H](CCCNC(=N)N)NC(=O)[C@H](CC(C)C)NC(=O)[C@H](Cc2ccc3ccccc3c2)NC(=O)[C@H](CCCNC(=N)N)NC1=O
> 128 µM

Record: CC(C)C[C@@H]1NC(=O)[C@H](Cc2ccc3ccccc3c2)NC(=O)[C@H](CCCNC(=N)N)NC(=O)[C@@H]2CCCN2C(=O)CNC(=O)[C@H](Cc2ccc3ccccc3c2)NC(=O)[C@H](CCCNC(=N)N)NC1=O (cyclo([2Nal]GPR[2Nal]LR))
> 128 µM

###

tested on: Acinetobacter baumannii; test: Antimicrobial activity against multidrug-resistant Acinetobacter baumannii ATCC BAA-1605 by tube dilution method; assay type: functional
# strict inequality: MIC < 60 µM yields criterion met, everything else yields criterion not met

For CC(C)C[C@@H]1NC(=O)CNC(=O)[C@H](Cc2ccc3ccccc3c2)NC(=O)[C@H](CCCNC(=N)N)NC(=O)[C@H](CC(C)C)NC(=O)[C@H](Cc2ccc3ccccc3c2)NC(=O)[C@H](CCCNC(=N)N)NC1=O , is the recorded MIC below the cut-off of 60 µM?
criterion not met
